- assay.name: MM1S cell viability effects, profiling panel, calcein-AM fluorescence, 48 h, basal (AID 1165);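 further: viability of MM1S multiple myeloma cells under basal unstimulated conditions; test concentration not given here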
- stated.conditions: higher = more signal
# if value of z-score reaches -2, tag y; if it stays below, tag n

For orientation, consider the following solved cases.
# compound, class.name
records = [
    ("COC(=O)C(CC#Cc1ccc2c(c1)[C@]1(C(=O)N2)[C@H](C(=O)O)[C@H]2C(=O)O[C@H](c3ccccc3)[C@H](c3ccccc3)N2[C@@H]1c1ccc(OCCO)cc1)C(=O)OC", "n"),
    ("CN(C)CCCC[C@@H]1NC(=O)[C@@H]2C[C@H](C(=O)NCCCCCNC(=O)CS)[C@H](c3cccc(OCCO)c3)N2C1=O", "y"),
    ("CC(C)CNC(=O)[C@@H]1c2ccccc2C(=O)N(Cc2ccc(OC(F)(F)F)cc2)[C@H]1c1ccc(CO)cc1", "y"),
]

API: the following record is the query input.
Threshold query (z-score >= -2) on "C=C(CCCC)/C(=C/C[C@@H](OC(=O)c1ccncc1)c1ccc(OCCO)cc1)c1cnc2ccccc2c1"
y
